Target: BCL-XLΔC (Homo sapiens, UniProt Q07817)
Sequence (Q07817 1-212 limits assumed, stated change not applied): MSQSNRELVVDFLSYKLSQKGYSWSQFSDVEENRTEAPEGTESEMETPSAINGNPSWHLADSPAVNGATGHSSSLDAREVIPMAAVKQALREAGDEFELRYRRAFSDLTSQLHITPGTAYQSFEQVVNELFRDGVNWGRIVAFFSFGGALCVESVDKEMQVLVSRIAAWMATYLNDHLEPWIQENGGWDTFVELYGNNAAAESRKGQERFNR
Test: High-throughput competitive FP binding screen, FITC-BAD BH3/BCL-XLΔC interaction; also: test concentration or dose not given here
Settings: FITC-BAD BH3/BCL-XLΔC interaction pair, competitive FP screen
Reported Metric: BCL-XL % Bound (%)
Give the value in % but do not write % after it.

Observe how each entry below is paired with its result.
{"Compound": "COC(=O)/C=C1/OC(c2ccc(Cl)cc2)=CC1=O", "Assayed System": "BCL-XLΔC (Homo sapiens, UniProt Q07817)", "BCL-XL % Bound, %": 97.17}
{"Compound": "CC1=C(C)C/S(=N\\S(=O)(=O)c2ccc(Cl)cc2)N(S(=O)(=O)c2ccc(Cl)cc2)C1 (stereo not drawn)", "Assayed System": "BCL-XLΔC (Homo sapiens, UniProt Q07817)", "BCL-XL % Bound, %": 100.2}
{"Compound": "Cc1ccc2[nH]c3nc(=S)[nH]nc3c2c1", "Assayed System": "BCL-XLΔC (Homo sapiens, UniProt Q07817)", "BCL-XL % Bound, %": 107.9}
{"Compound": "O=C(c1ccccc1)c1nc2ccccc2oc1=O", "Assayed System": "BCL-XLΔC (Homo sapiens, UniProt Q07817)", "BCL-XL % Bound, %": 43.27}
{"Compound": "O=C(CSc1nc2c(sc(=S)n2Cc2ccco2)c(=O)n1-c1ccccc1)c1ccc(O)c(O)c1", "Assayed System": "BCL-XLΔC (Homo sapiens, UniProt Q07817)", "BCL-XL % Bound, %": 120.9}

Q) Recorded BCL-XL % Bound for O=C(O)C1CCCN(c2nn3cc(-c4ccc(F)cc4)nc3s2)C1 (stereo not drawn) , please?
A) 82.02

Q) Further, for O=C(/C=C/c1ccc(Br)o1)OCC(=O)c1c[nH]c2ccccc12 ?
A) 105.6

Q) Next up: CN1CCN(C(c2ccccn2)c2c(-c3ccccc3)n(O)c3ccccc23)CC1 (stereo not drawn)
A) 99.83

Q) Moving on to CCOC(=O)c1c(N2C(=O)C3C4C=CC(O4)C3C2=O)sc2c1CCCC2 (stereo not drawn)
A) 95.97

###

Tested on: MCL-1ΔNΔC
Experiment: High-throughput competitive FP binding screen, FITC-MCL-1 SAHB/MCL-1ΔNΔC interaction; also: test concentration or dose not given here
Reported values of Spec Values for individual entries
Output spec: single numeric token, no unit.

Before answering, review these 10 worked examples.
{"Compound": "CCN1C(=O)C(=Cc2ccc(O)c(I)c2)C(=O)N(CC)C1=S", "Spec Values": 61.04}
{"Compound": "O=C1NC(=O)C(=Cc2ccc(Sc3ccc(Cl)cc3)o2)C(=O)N1", "Spec Values": 52.25}
{"Compound": "Cc1ccccc1C=C1C(=O)N(C)C(=S)N(C)C1=O", "Spec Values": 48.03}
{"Compound": "CCN1C(=O)C(=Cc2cccn2C)C(=O)N(CC)C1=S", "Spec Values": 53.66}
{"Compound": "O=C1NC(=O)N(CCC2=CCCCC2)C(=O)/C1=C/c1cnc(-c2ccccc2)nc1 [drawing 249]", "Spec Values": 63.4}
{"Compound": "O=C1NC(=O)N(CCc2ccc(F)cc2)C(=O)/C1=C\\c1ccc(O)c(O)c1", "Spec Values": 50.75}
{"Compound": "Cc1sc(-n2c(C)cc(C=C3C(=O)NC(=S)NC3=O)c2C)c(C#N)c1C", "Spec Values": 56.82}
{"Compound": "CCc1ccc(C=C2C(=O)N(C)C(=S)N(C)C2=O)cc1", "Spec Values": 45.4}
{"Compound": "Oc1c(Cl)cc(Cl)c(Cl)c1Cc1c(O)c(Cl)cc(Cl)c1Cl [drawing 23]", "Spec Values": 59.35}
{"Compound": "CC1=C(O)C(=O)C=C2C1=CC=C1[C@@]2(C)CC[C@@]2(C)[C@@H]3C[C@](C)(C(=O)O)CC[C@]3(C)CC[C@]12C [Celastrol, reference compound]", "Spec Values": 64.19}

Q) Consider the compound shown here: N#C/C(=C\c1ccc(O)c(O)c1)C(N)=S [drawing 231] What is its recorded Spec Values?
A) 66.21

Q) CSc1ncc(/C=C2/C(=O)NC(=O)N(C3CCCCC3)C2=O)cn1 ?
A) 52.58

Q) Repeat with Oc1c(Cl)cc(Cl)c(Cl)c1Cc1c(O)c(Cl)cc(Cl)c1Cl [Hexachlorophene, reference compound]
A) 59.35

Q) Would you mind doing C=CCN1C(=O)/C(=C\c2ccc(N(CC)CC)cc2)C(=O)NC1=S as well?
A) 60.35

Q) Param item: N#C/C(=C\c1ccc(O)c(O)c1)C(N)=S [Tyrphostin 47, reference compound]
A) 66.21

Q) Proceed to CC1=C(CC/C(C)=C/CCC2C=CC(C3=CC(=O)OC3O)OC2O)C(C)(C)CCC1 (stereo not shown) [drawing 17]
A) 71.82

Q) And CC1=NOC(=O)/C1=C/c1ccc(-c2ccc(Cl)cc2)o1 [drawing 255] ?
A) 62.98

Q) Record: C=CCN1C(=O)/C(=C\c2ccc(N3CCOCC3)cc2C)C(=O)NC1=S
A) 49.65
